TGT: purified human Factor XIa (Homo sapiens (Human))
EXPERIMENT_DESCRIPTION: Factor XIa enzyme inhibition assay (chromogenic substrate S-2366)
EXPERIMENTAL_CONTEXT: read-out: Factor XIa Ki; measured at 25° C.
Where a name gives a salt, the structure may show the parent alone.
READOUT_LABEL: Ki (nM)

compound="COC1CCN(c2cccc3c2CCN(C(=O)c2cncc(-c4cccc(Cl)c4F)c2)C3C(=O)Nc2ccc(C(=O)O)cc2)CC1 (stereo not drawn) [Example 323, TFA salt]" readout_label=Ki unit_text=nM result_value=5.28

A. CC(C)c1nnc2n1CCN(c1cccc3c1CCN(C(=O)[C@H]1CC(c4cccc(Cl)c4F)=NO1)[C@H]3C(=O)Nc1ccc(C(=O)O)cc1)C2 [Example 337, TFA salt]
B. Cc1c(C(=O)N2CCc3c(-c4cncnc4)cccc3C2C(=O)Nc2ccc(-c3ncc[nH]3)cc2)ncn1-c1cccc(Cl)c1F (stereo not drawn) [Example 136, TFA salt]
Lookup: # query: argmin of Ki over A and B To answer, give the label that identifies your chosen option.
Found: B
(B: 6.97 nM, A: 27.9 nM)

###

TGT: purified human plasma kallikrein (Homo sapiens (Human))
EXPERIMENT_DESCRIPTION: Plasma kallikrein enzyme inhibition assay (chromogenic substrate S-2302)
Format: biochemical
EXPERIMENTAL_CONTEXT: measured at 37° C. (*)
pKi: −log10 of the molar value. Where a name gives a salt, the structure may show the parent alone.
READOUT_LABEL: pKi

Here are 2 compounds together with their reported answers.
compound="O=C(O)c1ccc(NC(=O)C2c3cccc(OC4COC4)c3CCN2C(=O)c2cn(-c3cccc(Cl)c3F)nn2)cc1 (stereo not drawn) [Example 123]" tgt="purified human plasma kallikrein (Homo sapiens (Human))" readout_label=pKi result_value=7.68
compound="O=C(Nc1ccc(-c2ncc[nH]2)cc1)[C@@H]1c2cccc(-c3cncnc3)c2CCN1C(=O)[C@H]1CC(c2cccc(Cl)c2F)=NO1 [Example 134, TFA salt]" tgt="purified human plasma kallikrein (Homo sapiens (Human))" readout_label=pKi result_value=7.61

P. CNC(=O)c1ccc(-c2cccc3c2CCN(C(=O)c2cn(-c4cccc(Cl)c4F)nn2)[C@@H]3C(=O)Nc2ccc(C(=O)OC)cc2)cn1 [Example 27, TFA salt]
Q. COC(=O)c1ccc(NC(=O)[C@H]2c3cccc(-c4cncnc4)c3CCN2C(=O)[C@H]2CC(c3cccc(Cl)c3F)=NO2)cc1 [Example 29]
Lookup: # query: argmin of pKi over P and Q To answer, give the label that identifies your chosen option.
Found: Q

###

TGT: purified human Factor XIa (Homo sapiens (Human), UniProt P03951)
Sequence (P03951 388-625): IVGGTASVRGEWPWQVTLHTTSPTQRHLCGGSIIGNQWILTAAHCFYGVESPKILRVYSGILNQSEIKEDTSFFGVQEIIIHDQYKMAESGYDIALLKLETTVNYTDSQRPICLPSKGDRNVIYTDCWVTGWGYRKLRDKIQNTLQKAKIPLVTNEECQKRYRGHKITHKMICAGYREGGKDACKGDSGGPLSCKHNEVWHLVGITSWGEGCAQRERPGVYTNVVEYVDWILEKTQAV
Sequence (P03951 19-387 partner): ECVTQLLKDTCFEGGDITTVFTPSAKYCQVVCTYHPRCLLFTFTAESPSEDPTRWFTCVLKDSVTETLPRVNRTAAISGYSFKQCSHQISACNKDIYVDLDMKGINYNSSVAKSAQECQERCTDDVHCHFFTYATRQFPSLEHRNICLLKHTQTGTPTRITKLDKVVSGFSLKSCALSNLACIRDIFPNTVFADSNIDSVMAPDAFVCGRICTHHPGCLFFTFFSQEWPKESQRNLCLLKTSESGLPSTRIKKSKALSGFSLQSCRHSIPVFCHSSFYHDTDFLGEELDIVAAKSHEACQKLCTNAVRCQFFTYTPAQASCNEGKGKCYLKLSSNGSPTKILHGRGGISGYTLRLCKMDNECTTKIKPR
EXPERIMENT_DESCRIPTION: Factor XIa enzyme inhibition assay (chromogenic substrate S-2366)
EXPERIMENTAL_CONTEXT: read-out: Factor XIa Ki; measured at 25° C.; TFA
Counter-ions that a name gives are not always drawn.
READOUT_LABEL: Ki (nM)
Write it as a number; the unit nM goes unstated.

Lookup: Consider the compound shown here: CN1CCN(c2cccc3c2CCN(C(=O)C2CC(c4cccc(Cl)c4F)=NO2)C3C(=O)Nc2ccc(C(=O)O)cc2)CC1=O (single isomer, unassigned) [Example 281, TFA] What is its recorded Ki?
Found: 12.8

###

TGT: purified human plasma kallikrein (Homo sapiens (Human), UniProt P03952)
Sequence (P03952 391-638): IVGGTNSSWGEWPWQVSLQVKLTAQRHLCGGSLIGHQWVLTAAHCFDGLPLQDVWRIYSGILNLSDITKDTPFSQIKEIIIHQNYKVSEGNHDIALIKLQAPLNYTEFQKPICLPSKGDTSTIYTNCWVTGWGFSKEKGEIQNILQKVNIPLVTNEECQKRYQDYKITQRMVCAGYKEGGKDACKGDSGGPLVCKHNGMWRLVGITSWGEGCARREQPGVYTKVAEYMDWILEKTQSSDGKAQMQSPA
Sequence (P03952 20-390 partner): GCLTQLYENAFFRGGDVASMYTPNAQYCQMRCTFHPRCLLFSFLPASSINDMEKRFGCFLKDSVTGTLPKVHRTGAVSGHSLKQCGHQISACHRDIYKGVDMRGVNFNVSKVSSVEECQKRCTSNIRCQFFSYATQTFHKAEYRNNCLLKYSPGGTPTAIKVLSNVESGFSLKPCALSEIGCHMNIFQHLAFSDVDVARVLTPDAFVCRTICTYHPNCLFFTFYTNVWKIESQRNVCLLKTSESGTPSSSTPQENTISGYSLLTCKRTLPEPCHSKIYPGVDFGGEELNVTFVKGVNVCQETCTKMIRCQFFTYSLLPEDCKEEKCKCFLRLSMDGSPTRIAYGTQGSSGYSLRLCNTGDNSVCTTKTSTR
EXPERIMENT_DESCRIPTION: Plasma kallikrein enzyme inhibition assay (chromogenic substrate S-2302)
Format: biochemical
EXPERIMENTAL_CONTEXT: measured at 37° C. (*)
pKi: −log10 of the molar value. Structures can show the parent of a compound that is named as a salt.
READOUT_LABEL: pKi

A. COC1CCN(c2cccc3c2CCN(C(=O)c2cn(-c4cccc(Cl)c4F)nn2)[C@@H]3C(=O)Nc2ccc(CO)cc2)CC1 [Example 122]
B. CC(C)c1nnc2n1CCN(c1cccc3c1CCN(C(=O)[C@@H]1CC(c4cccc(Cl)c4F)=NO1)[C@@H]3C(=O)Nc1ccc(C(=O)O)cc1)C2 [Example 338, TFA salt]
Lookup: # query: argmin of pKi over A and B To answer, give the label that identifies your chosen option.
Found: B
(B: 6.60, A: 7.00)
